- Test system: MDA-MB-453 cells
- PROTOCOL DETAILS: Cell proliferation, MDA-MB-453 (CellTiter Glo)
- Type: cell-based
- MEASUREMENT CONTEXT: Homo sapiens, 96 hr
Task for the reader: assign each of the following compounds its reported GI50.

Data request, read-out GI50, for C=CC(=O)Nc1cc(-c2nnnn2C)ccc1Nc1ncc2cc(-c3c(Cl)c(OC)cc(OC)c3Cl)c(=O)n(C)c2n1 [Compound I-276]
< 100 nM

Param item: C=CC(=O)N[C@H]1COC[C@H]1Nc1ncc2cc(-c3c(F)c(OC)cc(OC)c3Cl)c(=O)n(C)c2n1 [Compound I-279]
< 100 nM

Proceed to C=CC(=O)Nc1cc(N2CCN(CC)CC2)ccc1Nc1ncc2cc(-c3c(Cl)c(OC)cc(OC)c3Cl)c(=O)n(C)c2n1 [Compound I-269]
< 100 nM

Queued: C=CC(=O)N[C@H]1COC[C@H]1Nc1ncc2cc(-c3c(Cl)c(OC)cc(OC)c3Cl)c(=O)n(C)c2n1 [Compound I-241]
< 100 nM

Same read-out for C=CC(=O)N[C@H]1COC[C@H]1Nc1ncc2cc(-c3c(F)c(OC)cc(OC)c3F)c(=O)n(C)c2n1 [Compound I-281] ?
101 to 500 nM

---

Provide the recorded EC50 for the entries that follow.
- SYSTEM TESTED: pFGFR4 (Huh7 cells) (Homo sapiens (Human), UniProt P22455)
- Sequence (P22455 22-802): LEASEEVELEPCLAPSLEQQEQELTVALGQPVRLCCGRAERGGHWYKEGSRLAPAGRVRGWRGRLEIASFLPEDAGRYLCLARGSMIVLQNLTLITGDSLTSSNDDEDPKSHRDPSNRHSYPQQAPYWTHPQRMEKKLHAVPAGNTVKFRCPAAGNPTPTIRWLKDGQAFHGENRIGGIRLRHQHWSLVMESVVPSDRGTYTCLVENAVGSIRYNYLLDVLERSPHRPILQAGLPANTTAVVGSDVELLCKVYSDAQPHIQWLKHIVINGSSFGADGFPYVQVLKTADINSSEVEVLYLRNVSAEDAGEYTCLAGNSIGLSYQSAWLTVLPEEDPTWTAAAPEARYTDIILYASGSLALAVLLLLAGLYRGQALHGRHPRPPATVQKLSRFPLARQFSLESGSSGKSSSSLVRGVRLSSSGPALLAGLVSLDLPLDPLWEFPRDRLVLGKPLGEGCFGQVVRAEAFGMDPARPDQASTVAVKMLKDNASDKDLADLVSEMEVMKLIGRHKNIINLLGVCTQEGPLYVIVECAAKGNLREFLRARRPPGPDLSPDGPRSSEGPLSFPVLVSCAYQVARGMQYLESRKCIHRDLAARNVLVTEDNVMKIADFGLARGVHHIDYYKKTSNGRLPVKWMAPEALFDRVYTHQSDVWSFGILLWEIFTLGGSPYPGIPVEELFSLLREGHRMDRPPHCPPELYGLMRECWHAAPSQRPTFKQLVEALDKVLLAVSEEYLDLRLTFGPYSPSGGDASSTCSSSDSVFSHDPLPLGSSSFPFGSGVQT
- PROTOCOL DETAILS: FGFR4 signaling (pFGFR4) in Huh7 cells (MSD)
- Type: cell-based
- MEASUREMENT CONTEXT: read-out: Signaling EC50 (nM) pFGFR4 (Huh)

Record request: EC50 value, item C=CC(=O)N[C@H]1COC[C@H]1Nc1ncc2cc(-c3c(Cl)c(OC)cc(OC)c3Cl)c(=O)n(CCOC)c2n1 [Compound I-295]
< 100 nM

Input C=CC(=O)Nc1cc(-c2ccn(C)n2)ccc1Nc1ncc2cc(-c3c(Cl)c(OC)cc(OC)c3Cl)c(=O)n(C)c2n1 [Compound I-267]
< 100 nM

Note, next up: C=CC(=O)Nc1cc(-c2nnnn2C)ccc1Nc1ncc2cc(-c3c(Cl)c(OC)cc(OC)c3Cl)c(=O)n(C)c2n1 [Compound I-276]
< 100 nM

---

- SYSTEM TESTED: FGFR4-WT (Homo sapiens (Human), UniProt P22455)
- Sequence (P22455 22-802): as above
Kindly state IC50 for each of the entries shown.

Fill in: IC50 of `C#CC(=O)N[C@H]1COC[C@H]1Nc1ncc2cc(-c3c(Cl)c(OC)cc(OC)c3Cl)c(=O)n(C)c2n1` is ___
< 100 nM

Also need `C=CC(=O)Nc1cc(N2CCN(CC)CC2)ccc1Nc1ncc2cc(-c3c(Cl)c(OC)cc(OC)c3Cl)c(=O)n(C)c2n1` , thanks.
< 100 nM

For `C=CC(=O)N[C@H]1COC[C@H]1Nc1ncc2cc(-c3cc(C(=O)Nc4cccc(C(C)(C)C)c4)ccc3Cl)c(=O)n(C)c2n1` then?
< 100 nM

// same read-out, input: C=CC(=O)NC1CN(C)CC1Nc1ncc2c(n1)N(C)C(=O)N(c1c(Cl)c(OC)cc(OC)c1Cl)C2 (racemic)
101 to 500 nM

Check C=CC(=O)NC1CN(C(C)=O)CC1Nc1ncc2c(n1)N(C)C(=O)N(c1c(Cl)c(OC)cc(OC)c1Cl)C2 (racemic) too.
< 100 nM
